assayNotes: Inhibition of gamma-secretase in guinea pig brain
Set-up: species or system Cavia porcellus
endpoint: IC50

Entry CCC[C@H](NC(=O)Cc1cc(F)cc(F)c1)C(=O)Nc1cn(C(C)(C)CNCC(C)(C)C)cn1 : reported IC50 = ?
24 nM
